Entries and their measured self-cleavage follow.
B1: HDV Ribozyme (parent)
chain: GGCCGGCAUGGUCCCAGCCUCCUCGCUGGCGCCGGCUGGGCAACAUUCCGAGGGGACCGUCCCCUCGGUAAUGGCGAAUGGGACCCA

# Variants of: B1
# Measurement protocol: self-cleavage, relative activity (ratio to wild type); higher = more cleavage; co-transcriptional
Metric: self-cleavage

| Alteration | Metric | Endpoint value |
| --- | --- | --- |
| C13U G80A | self-cleavage | 0.31 |
| A16G G74A | self-cleavage | 0.404 |
| G80A C86G | self-cleavage | 0.362 |
| G1A A51U | self-cleavage | 0 |
| C18A G53U | self-cleavage | 0.117 |
| G6C G59U | self-cleavage | 0.314 |
| G39A G81C | self-cleavage | 0.113 |
| G82C C86A | self-cleavage | 0.527 |
| C4U C66A | self-cleavage | 0.755 |
| C4U C84U | self-cleavage | 0.514 |
| C22G C66U | self-cleavage | 0.0308 |
| C36A A56C | self-cleavage | 0.131 |
| G1C C7G | self-cleavage | 0.0875 |
| G29U A43G | self-cleavage | 0.131 |
| C13A C15G | self-cleavage | 0.142 |
| C19G C26G | self-cleavage | 0 |
| G17C C66G | self-cleavage | 0.32 |
| G34U G76C | self-cleavage | 0.0821 |
| C15G G76C | self-cleavage | 0.467 |
| C30G C32G | self-cleavage | 0.0627 |
| G40C A56G | self-cleavage | 0.237 |
| C61G C66U | self-cleavage | 1.08 |

Source of measurements: the RNAGym collection of RNA variant scans (doi:10.7554/elife.80360)
